- System: SW684 (Other Solid Carcinomas)
- testDescription: combination Emax (second highest fraction inhibited in the dose matrix, 72 h); higher = more inhibition; extreme values may be limits of the assay
observable: combination Emax
Form: value (number only, do not type unit).

// fetch combination Emax given entry CN(C)CCCOc1ccc(-c2ccc3ncc4c(c3c2)n(C2CCOCC2)c(=O)n4C)cn1 [AZD0156] + CCN(CCO)CCCOc1ccc2c(Nc3cc(CC(=O)Nc4cccc(F)c4)[nH]n3)ncnc2c1 [AZD2811] (first compound max 1 µM, 7x7, partner max 1 µM)
0.154

// fetch combination Emax given entry CCN(CCO)CCCOc1ccc2c(Nc3cc(CC(=O)Nc4cccc(F)c4)[nH]n3)ncnc2c1 [AZD2811] + C=CCn1c(=O)c2cnc(Nc3ccc(N4CCN(C)CC4)cc3)nc2n1-c1cccc(C(C)(C)O)n1 [AZD1775] (first compound max 1 µM, partner max 1 µM)
0.165

// fetch combination Emax given entry CN(CCO)CC[C@H](CSc1ccccc1)Nc1ccc(S(=O)(=O)NC(=O)c2ccc(N3CCC([C@@H](O)c4ccccc4-c4ccc(Cl)cc4)CC3)cc2)cc1S(=O)(=O)C(F)(F)F [AZD4320] + CS(=O)(=O)CCNCc1ccc(-c2ccc3ncnc(Nc4ccc(OCc5cccc(F)c5)c(Cl)c4)c3c2)o1 [Lapatinib] (first compound max 1 µM, 7x7, partner max 10 µM)
0.823

---

- System: SNU-175 (Colorectal Carcinoma);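 further: after 72 h of two-drug dosing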
- testDescription: Bliss excess, mean over the matrix (fraction); higher = more synergy
observable: Bliss excess
Form: value (number only, do not type unit).

Specify Bliss excess for Cc1c2c(nn1C)CSCc1cc(n(C)n1)CSc1cc(c3ccccc3c1)OCCCc1c(C(=O)O)n(C)c3c-2c(Cl)ccc13 [AZD5991] + CN(C)CCCOc1ccc(-c2ccc3ncc4c(c3c2)n(C2CCOCC2)c(=O)n4C)cn1 [AZD0156] (first compound max 1 µM, 7x7, partner max 1 µM) , system SNU-175 (Colorectal Carcinoma).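 Further: after 72 h of two-drug dosing.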
-0.0515

Specify Bliss excess for NC1(C(=O)N[C@@H](CCO)c2ccc(Cl)cc2)CCN(c2ncnc3[nH]ccc23)CC1 [Capivasertib] + COc1nnc2ccc(N3CCC(c4ccc(OCCN5CCN(C)C(=O)[C@H]5C)cc4)CC3)nn12 [AZD5153] (first compound max 10 µM, 7x7, partner max 1 µM) , system SNU-175 (Colorectal Carcinoma).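 Further: after 72 h of two-drug dosing.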
-0.055

Specify Bliss excess for CC(=O)c1c(C)c2cnc(Nc3ccc(N4CCNCC4)cn3)nc2n(C2CCCC2)c1=O [Palbociclib] + CN(CC[C@H](CSC1=CC=CC=C1)NC2=C(C=C(C=C2)S(=O)(=O)NC(=O)C3=CC=C(C=C3)N4CCC(CC4)[C@H](C5=CC=CC=C5C6=CC=C(C=C6)Cl)O)S(=O)(=O)C(F)(F)F)CCO [AZD4320] (first compound max 10 µM, 7x7, partner max 1 µM) , system SNU-175 (Colorectal Carcinoma).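 Further: after 72 h of two-drug dosing.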
-0.0082

Specify Bliss excess for Cc1nc(Nc2ncc(C(=O)Nc3c(C)cccc3Cl)s2)cc(N2CCN(CCO)CC2)n1 [Dasatinib] + CC(=O)Nc1cccc(-n2c(=O)n(C3CC3)c(=O)c3c(Nc4ccc(I)cc4F)n(C)c(=O)c(C)c32)c1 [Trametinib] (first compound max 2 µM, 7x7, partner max 1 µM) , system SNU-175 (Colorectal Carcinoma).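 Further: after 72 h of two-drug dosing.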
-0.0992

Specify Bliss excess for COc1cccc(OCCCN)c1-c1cc(Nc2cnc(C#N)cn2)n[nH]1 [Prexasertib] + C[C@@H]1COCCN1C2=NC(=NC(=C2)C3(CC3)[S@](=N)(=O)C)C4=C5C=CNC5=NC=C4 [AZD6738] (first compound max 1 µM, 7x7, partner max 10 µM) , system SNU-175 (Colorectal Carcinoma).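 Further: after 72 h of two-drug dosing.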
0.0641

Specify Bliss excess for CN(CCO)CC[C@H](CSc1ccccc1)Nc1ccc(S(=O)(=O)NC(=O)c2ccc(N3CCC([C@@H](O)c4ccccc4-c4ccc(Cl)cc4)CC3)cc2)cc1S(=O)(=O)C(F)(F)F [AZD4320] + CCN(CCO)CCCOc1ccc2c(Nc3cc(CC(=O)Nc4cccc(F)c4)[nH]n3)ncnc2c1 [AZD2811] (first compound max 1 µM, 7x7, partner max 1 µM) , system SNU-175 (Colorectal Carcinoma).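 Further: after 72 h of two-drug dosing.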
0.0362

Specify Bliss excess for NC1(C(=O)N[C@@H](CCO)c2ccc(Cl)cc2)CCN(c2ncnc3[nH]ccc23)CC1 [Capivasertib] + CC(C)n1c(=O)n(C)c2cnc3cc(F)c(-c4ccc(OCCCN5CCCCC5)nc4)cc3c21 [AZD1390] (first compound max 10 µM, 7x7, partner max 0.3 µM) , system SNU-175 (Colorectal Carcinoma).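 Further: after 72 h of two-drug dosing.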
-0.0346

Specify Bliss excess for CC(=O)Nc1cccc(-n2c(=O)n(C3CC3)c(=O)c3c(Nc4ccc(I)cc4F)n(C)c(=O)c(C)c32)c1 [Trametinib] + Cc1nc(-c2cn3c(n2)-c2ccc(-c4cnn(C(C)(C)C(N)=O)c4)cc2OCC3)n(C(C)C)n1 [Taselisib] (first compound max 1 µM, 7x7, partner max 10 µM) , system SNU-175 (Colorectal Carcinoma).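 Further: after 72 h of two-drug dosing.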
0.0779
